# TARGET_DESC: human P2X3 receptor (Homo sapiens (Human), UniProt P56373)
# Sequence (P56373 whole entry): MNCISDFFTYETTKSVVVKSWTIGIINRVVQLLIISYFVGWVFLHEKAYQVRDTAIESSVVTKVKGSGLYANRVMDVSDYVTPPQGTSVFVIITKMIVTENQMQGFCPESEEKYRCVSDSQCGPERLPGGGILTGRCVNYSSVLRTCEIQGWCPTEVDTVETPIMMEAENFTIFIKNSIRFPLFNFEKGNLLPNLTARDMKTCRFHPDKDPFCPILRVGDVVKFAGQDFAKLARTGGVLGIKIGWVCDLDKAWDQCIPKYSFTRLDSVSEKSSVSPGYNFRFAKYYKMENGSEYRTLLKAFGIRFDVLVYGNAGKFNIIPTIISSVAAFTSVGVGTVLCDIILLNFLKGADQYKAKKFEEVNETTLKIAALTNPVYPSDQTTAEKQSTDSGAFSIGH
# TEST_SUMMARY: P2X3 receptor inhibition, ATP-evoked Fluo-3 fluorescence (FDSS 3000)
# CONDITION_NOTES: C6BU-1 cell transfected with human P2X3 receptor gene
PROPERTY_MEASURED: log10(IC50) (log10 of the value in nM)
log10 IC50, nM

# count of solved cases: 6
> print(dat)
                        structure.as.smiles  experimental.result
1  CC(C)Oc1ccc(Nc2nc(=O)n(CCN3C(=O)CNC3=O)c(=O)n2Cc2ccc(Cl)cc2)cc1F                 2.12
2  COC(=O)C(C)(C)Cn1c(=O)[nH]/c(=N\c2ccc(OC(C)C)c(F)c2)n(Cc2ccc(Cl)cc2)c1=O                 1.18
3  CCn1c(=O)nc(Nc2cccc(C(F)(F)F)c2)n(Cc2ccc(F)cc2)c1=O                 2.79
4  COC(=O)C(C)(C)Cn1c(=O)[nH]/c(=N\c2ccc(OC(C)C)c(F)c2)n(Cc2ccc(C)cc2)c1=O                 1.08
5  CC(C)Oc1ccc(/N=c2\[nH]c(=O)n(CCC(C)(C)C(=O)O)c(=O)n2Cc2ccc(Cl)cc2)cc1F                 1.72
6  Cc1ccc(Cn2c(=O)n(CCCC(=O)O)c(=O)[nH]/c2=N\c2ccc(OC(C)C)c(C)c2)cc1                 1.73

Could you report log10(IC50) for every entry in the following list?
1. Cc1ccc(Cn2c(Nc3cccc(C(F)(F)F)c3)nc(=O)n(C(C)(C)C)c2=O)cc1
2. COC(=O)C(C)(C)Cn1c(=O)[nH]/c(=N\c2ccc(OC(C)C)c(C)c2)n(Cc2ccc(Cl)cc2)c1=O

1. 2.70
2. 0.60

----------
# TARGET_DESC: human P2X3 receptor (Homo sapiens (Human))
# TEST_SUMMARY: P2X3 receptor inhibition, ATP-evoked Fluo-3 fluorescence (FDSS 3000)
# CONDITION_NOTES: C6BU-1 cell transfected with human P2X3 receptor gene
PROPERTY_MEASURED: pIC50
One number for each entry, as −log10 of the molar value.

> print(dat)
                        structure.as.smiles  property.measured  experimental.result
1  CC(C)Oc1ccc(/N=c2\[nH]c(=O)n(CC(C)(C)C(=O)O)c(=O)n2CC2CCCCC2)cc1Cl              pIC50                 7.47

Could you report pIC50 for every entry in the following list?
1. COCCOc1ccc(Nc2nc(=O)n(C(C)C)c(=O)n2Cc2ccc(Cl)cc2)cc1Cl
2. COC(=O)c1ccc(Nc2nc(=O)n(C(C)C)c(=O)n2Cc2ccc(F)cc2)cc1Cl

[6.64, 6.18]

Log: human P2X3 receptor (Homo sapiens (Human)), molecule CNC(=O)NCCn1c(=O)nc(Nc2ccc(OC(C)C)c(F)c2)n(Cc2ccc(Cl)cc2)c1=O , pIC50 = 7.43

----------
Exercise: for every item that follows, state its recorded IC50.
# TARGET_DESC: human P2X3 receptor (Homo sapiens (Human), UniProt P56373)
# TEST_SUMMARY: P2X3 receptor inhibition, ATP-evoked Fluo-3 fluorescence (FDSS 3000)
# CONDITION_NOTES: C6BU-1 cell transfected with human P2X3 receptor gene
Give bare numbers, in nM.

# count of solved cases: 3
> print(dat)
                        structure.as.smiles  experimental.result
1  CCOc1ccc(Nc2nc(=O)n(C[C@H](C)C(=O)OC)c(=O)n2Cc2ccc(Cl)cc2)cc1C                   29
2  Cc1ccc(Cn2c(=O)n(CCC(=O)O)c(=O)[nH]/c2=N\c2ccc(OC(C)C)c(F)c2)cc1                   61
3  CCOC(=O)CCn1c(=O)nc(Nc2ccc(OC(C)C)c(F)c2)n(Cc2ccc(Cl)cc2)c1=O                   12

Could you report IC50 for every entry in the following list?
1. COC(=O)[C@@H](C)Cn1c(=O)[nH]/c(=N\c2ccc(OC(C)C)c(Cl)c2)n(CC2CCCCC2)c1=O
2. Cc1cc2cc(/N=c3\[nH]c(=O)n(CCCC(=O)O)c(=O)n3Cc3ccc(Cl)cc3)ccc2o1
3. CCOc1ccc(/N=c2\[nH]c(=O)n(CC(C)(C)C(=O)O)c(=O)n2Cc2ccc(Cl)cc2)cc1
4. COC(=O)C(C)(C)Cn1c(=O)[nH]/c(=N\c2ccc(OC(C)C)c(Cl)c2)n(CC2CCCCCC2)c1=O
5. CC(C)Oc1ccc(Nc2nc(=O)n(CCNC(=O)NCC(=O)O)c(=O)n2Cc2ccc(Cl)cc2)cc1F
6. Cc1cc(/N=c2\[nH]c(=O)n([C@@H](C)CC(=O)O)c(=O)n2Cc2ccc(Cl)cc2)ccc1OC(C)C
7. CCOC(=O)COc1ccc(Nc2nc(=O)n(C(C)C)c(=O)n2Cc2ccc(Cl)cc2)cc1Cl
8. Cc1ccc(Cn2c(Nc3cccc(Cl)c3)nc(=O)n(C(C)C)c2=O)cc1

1: 12; 2: 120; 3: 96; 4: 19; 5: 38; 6: 53; 7: 447; 8: 387
